Data origin, for the record: PubChem BioAssay AID2242

# tgt: Lysosomal alpha-glucosidase (Homo sapiens) (UniProt P10253)
# measurement.description: qHTS Assay for Activators of Human alpha-Glucosidase as a Potential Chaperone Treatment of Pompe Disease; further: potency means the concentration at half of the fitted maximal effect; nearly all actives have a fitted effect of over 80% in size
# cond: purified enzyme, 4-MU-alpha-glucoside fluorescence, 20 min
The campaign covered roughly 200,000 compounds. About 720 (0.36%) were called active. About 8% were inconclusive and are not listed. The list shows a part of the results.
Please provide measured Potency for the entries that follow.

COCCOC(=O)c1c(N)n(Cc2ccc(OC)cc2)c2nc3ccccc3nc12    35.5 µM (active)
Nc1c(C(=O)NCCN2CCOCC2)c2nc3ccccc3nc2n1Cc1ccco1    39.8 µM (active)
COP(=O)(OC)c1nc(-c2cccc3ccccc23)oc1N1CCCCC1    35.5 µM (active)
CCOP(=O)(OCC)c1nc(-c2cccc3ccccc23)oc1N1CCCCC1    35.5 µM (active)
CCCNC(=O)c1c(N)n(CC2CCCO2)c2nc3ccccc3nc12 (stereo unspecified)    31.6 µM (active)

--- query ---
Query :: Dear colleague, please send me the reported Potency for CC(C)OCCCNC(=O)c1c(N)n(CC2CCCO2)c2nc3ccccc3nc12 (stereo unspecified) when you can.
Result :: 39.8 µM (active)
